target_desc: Aβ42 (amyloid-beta) (Homo sapiens, UniProt P05067)
Construct: Aβ42
Sequence (P05067 672-713): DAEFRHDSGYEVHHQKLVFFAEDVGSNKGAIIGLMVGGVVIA
measurement_notes: ThT fibril aggregation assay, […] Aβ[…] h at […] °C
measured_endpoint: EC50 (µM)
Write down the numeric answer in µM and omit the unit.

Using the record for O=C(/C=C/c1ccc(O)c(O)c1)O[C@H](Cc1ccc(O)c(O)c1)C(=O)O , report its EC50. 15
